Provide the recorded inhibition at 110 µM for the entries that follow.
Tested on: C. elegans
Assay: microbe, parasite or virus in culture
Details: Caenorhabditis elegans, 0 h, read-out: Percentage of motility inhibition 0 h, Table S2, C. elegans SS assay, 110 μM, 0 h, averages of 4 data points
Your answer should be a plain number; it is taken to be in %.

q: Fill in the blank: the reported inhibition at 110 µM of COc1cc2cc(c1Cl)N(C)C(=O)CC(O)C1(C)OC1C(C)C1CC(O)(NC(=O)O1)C(OC)/C=C/C=C(\C)C2 (stereo not drawn) is ____.
a: 0

q: Fill in the blank: the reported inhibition at 110 µM of C[C@@H]1O[C@@H](O[C@H]2[C@H](O)[C@@H](O)[C@H](OC[C@H]3O[C@@H](OC(=O)[C@]45CCC(C)(C)C[C@H]4C4=CC[C@@H]6[C@@]7(C)CC[C@H](O[C@@H]8OC[C@H](O)[C@H](O)[C@H]8O)[C@@](C)(CO)[C@@H]7CC[C@@]6(C)[C@]4(C)CC5)[C@H](O)[C@@H](O)[C@@H]3O)O[C@@H]2CO)[C@H](O)[C@H](O)[C@H]1O [Cauloside D] is ____.
a: 6

q: Fill in the blank: the reported inhibition at 110 µM of C=C[C@@]1(C)CC(=O)[C@]2(O)[C@@]3(C)[C@@H](O)CCC(C)(C)[C@@H]3[C@H](O)[C@H](OC(C)=O)[C@@]2(C)O1 is ____.
a: 0

q: Fill in the blank: the reported inhibition at 110 µM of O=C(Nc1ccccc1F)N[C@H]1N=C(c2ccccc2)c2ccccc2NC1=O is ____.
a: 37

q: Fill in the blank: the reported inhibition at 110 µM of Oc1ccc2[nH]ccc2c1 [5‐Hydroxyindole] is ____.
a: 28

q: Fill in the blank: the reported inhibition at 110 µM of COC(=O)c1c2c(c3ccccc3c1O)OC(C)(C)C=C2 is ____.
a: 1

q: Fill in the blank: the reported inhibition at 110 µM of COc1ccc2c(c1)CC=C(CO)c1cc3c(cc1-2)OCO3 is ____.
a: 0

q: Fill in the blank: the reported inhibition at 110 µM of COc1ccc(-c2cc(=O)c3c(O)cc(O)c(-c4cc(-c5cc(=O)c6c(O)cc(O)cc6o5)ccc4OC)c3o2)cc1 is ____.
a: 17

q: Fill in the blank: the reported inhibition at 110 µM of CC[C@H]1C[C@@H]2CN3CCc4c([nH]c5ccccc45)[C@](C(=O)OC)(C2)[C@H]13 is ____.
a: 0

q: Fill in the blank: the reported inhibition at 110 µM of Cc1cc(=O)oc2cc(O)ccc12 is ____.
a: 4

q: Fill in the blank: the reported inhibition at 110 µM of CCCCCCCCCCCCCCCCCC(=O)O is ____.
a: 0

q: Fill in the blank: the reported inhibition at 110 µM of CCCCCCCCCCOc1cc2c(O)c(C(=O)OCC)cnc2cc1OCC [Decoquinate] is ____.
a: 13

q: Fill in the blank: the reported inhibition at 110 µM of C=C1C/C(=C/C)C(=O)O[C@@H]2CCN3CC=C(COC(=O)[C@]1(C)O)[C@H]23 is ____.
a: 0

q: Fill in the blank: the reported inhibition at 110 µM of CC[C@@H]([C@H](C)O)n1ncn(-c2ccc(N3CCN(c4ccc(OC[C@@H]5CO[C@@](Cn6cncn6)(c6ccc(F)cc6F)C5)cc4)CC3)cc2)c1=O is ____.
a: 23

q: Fill in the blank: the reported inhibition at 110 µM of O=C(/C=C/c1ccccc1)c1ccccc1 [Trans-chalcone] is ____.
a: 17

q: Fill in the blank: the reported inhibition at 110 µM of Cc1ccc(C(C)C)c(O)c1 is ____.
a: 54

q: Fill in the blank: the reported inhibition at 110 µM of CCn1cc(C(=O)O)c(=O)c2ccc(C)nc21 is ____.
a: 27

q: Fill in the blank: the reported inhibition at 110 µM of CC(C)c1ccc2c(c1)CC[C@H]1[C@](C)(C(=O)O)CCC[C@]21C [Dehydroabietic acid] is ____.
a: 4

q: Fill in the blank: the reported inhibition at 110 µM of O=C1Nc2ccc(Cl)cc2[C@@](C#CC2CC2)(C(F)(F)F)O1 is ____.
a: 29

q: Fill in the blank: the reported inhibition at 110 µM of C[C@H]1COc2c(N3CCN(C)CC3)c(F)cc3c(=O)c(C(=O)O)cn1c23 is ____.
a: 9

q: Fill in the blank: the reported inhibition at 110 µM of C[C@@]12C[C@@]3(O)O[C@@H](O1)[C@]1(COC(=O)c4ccccc4)[C@H]3C[C@@]12O[C@@H]1O[C@H](COC(=O)c2ccccc2)[C@@H](O)[C@H](O)[C@H]1O is ____.
a: 10

q: Fill in the blank: the reported inhibition at 110 µM of CC(C)=CCc1cc(-c2coc3cc(O)ccc3c2=O)ccc1O is ____.
a: 10

q: Fill in the blank: the reported inhibition at 110 µM of C[C@@H]1O[C@@H](O[C@H]2[C@H](OC(=O)[C@]34CCC(C)(C)C[C@H]3C3=CC[C@@H]5[C@@]6(C)C[C@H](O)[C@H](O[C@@H]7O[C@H](CO)[C@@H](O)[C@H](O)[C@H]7O)C(CO)(CO)[C@@H]6CC[C@@]5(C)[C@]3(C)C[C@H]4O)OC[C@H](O)[C@@H]2O)[C@H](O)[C@H](O)[C@H]1O[C@@H]1OC[C@@H](O)[C@H](O[C@@H]2OC[C@](O)(CO)[C@H]2O)[C@H]1O is ____.
a: 0

q: Fill in the blank: the reported inhibition at 110 µM of COc1cc([C@H]2Oc3cc([C@H]4Oc5cc(O)cc(O)c5C(=O)[C@@H]4O)ccc3O[C@@H]2CO)ccc1O is ____.
a: 22

q: Fill in the blank: the reported inhibition at 110 µM of C[C@@]12C[C@@]3(O)O[C@@H](O1)[C@]1(COC(=O)c4ccccc4)[C@H]3C[C@@]12O[C@@H]1O[C@H](CO)[C@@H](O)[C@H](O)[C@H]1O is ____.
a: 4

q: Fill in the blank: the reported inhibition at 110 µM of O=C(CC1NCCCC1O)Cn1cnc2cc(Br)c(Cl)cc2c1=O (stereo not drawn) is ____.
a: 18

q: Fill in the blank: the reported inhibition at 110 µM of C=C1C(=O)[C@]23[C@H](O)[C@H]1CC[C@H]2[C@@]12CO[C@]3(O)[C@@H](O)[C@@H]1C(C)(C)CC[C@@H]2O is ____.
a: 0

###

Test system: C. elegans
Details: Table S2, C. elegans SS assay, 110 μM, 0 h, averages of 4 data points
Provide the recorded Percentage of motility inhibition 0 h for the entries that follow.
Your answer should be a number followed by the unit of measure.

q: Fill in the blank: the reported Percentage of motility inhibition 0 h of C=C(C)[C@@H]1CC[C@]2(C(=O)O)CC[C@]3(C)[C@H](CC[C@@H]4[C@@]5(C)CCC(=O)C(C)(C)[C@@H]5CC[C@]43C)[C@@H]12 is ____.
a: 24%

q: Fill in the blank: the reported Percentage of motility inhibition 0 h of Cn1cnc2c(ncn2[C@@H]2O[C@H](CO)[C@@H](O)[C@H]2O)c1=N is ____.
a: 7%

q: Fill in the blank: the reported Percentage of motility inhibition 0 h of CCN(CC)C(=O)N1CCN(C)CC1.O=C(O)CC(O)(CC(=O)O)C(=O)O [Diethylcarbamazine (citrate)] is ____.
a: 13%

q: Fill in the blank: the reported Percentage of motility inhibition 0 h of COc1cc2c(cc1O)CC[n+]1cc3c(OC)c(OC)ccc3cc1-2.[Cl-] [Jatrorrhizine (chloride)] is ____.
a: 33%

q: Fill in the blank: the reported Percentage of motility inhibition 0 h of COC(=O)[C@]1(C)CC[C@]2(C)CC[C@]3(C)C4=CC=C5C(=CC(=O)C(O)=C5C)[C@]4(C)CC[C@@]3(C)[C@@H]2C1 is ____.
a: 15%

q: Fill in the blank: the reported Percentage of motility inhibition 0 h of CC1=CC(=O)C2(C(C)C)CC12 (stereo not drawn) is ____.
a: 0%

q: Fill in the blank: the reported Percentage of motility inhibition 0 h of CC(C)(O)[C@@H]1CC[C@](C)([C@H]2[C@@H](O)C[C@@]3(C)[C@@H]4C[C@H](O[C@@H]5O[C@H](CO)[C@@H](O)[C@H](O)[C@H]5O)[C@H]5C(C)(C)[C@@H](O[C@@H]6OC[C@@H](O)[C@H](O)[C@H]6O)CC[C@@]56C[C@@]46CC[C@]23C)O1 [Astragaloside IV] is ____.
a: 10%

q: Fill in the blank: the reported Percentage of motility inhibition 0 h of COc1ccc2c(c1O)-c1c(O)c(OC)cc3c1[C@H](C2)[N+](C)(C)CC3.[I-] [(+)‐Magnoflorine (iodide)] is ____.
a: 10%

q: Fill in the blank: the reported Percentage of motility inhibition 0 h of CC(C)=CCC[C@@](C)(O)[C@H]1CC[C@]2(C)[C@@H]1[C@H](O)C[C@@H]1[C@@]3(C)CC[C@H](O)C(C)(C)[C@@H]3[C@@H](O[C@@H]3O[C@H](CO)[C@@H](O)[C@H](O)[C@H]3O)C[C@]12C [(20R)-Ginsenoside Rh1] is ____.
a: 13%

q: Fill in the blank: the reported Percentage of motility inhibition 0 h of CN(C)[C@@H]1C(O)=C(C(N)=O)C(=O)[C@@]2(O)C(O)=C3C(=O)c4c(O)ccc(Cl)c4[C@@H](O)[C@H]3C[C@@H]12.Cl [Demeclocycline (hydrochloride)] is ____.
a: 17%

q: Fill in the blank: the reported Percentage of motility inhibition 0 h of C[C@H](CC(=O)C[C@](C)(O)[C@@H]1CC(=O)[C@@]2(C)C3=C(C(=O)C[C@]12C)[C@@]1(C)CC[C@H](O)C(C)(C)[C@@H]1C[C@@H]3O)C(=O)O is ____.
a: 0%

q: Fill in the blank: the reported Percentage of motility inhibition 0 h of Cn1c[n+]([C@@H]2O[C@H](CO)[C@@H](O)[C@H]2O)c2nc(N)[nH]c(=O)c21 is ____.
a: 0%
